Origin of measurements: paper PMC6268314

Test system: A549, human lung carcinoma cell line
Measurement description: Cytotoxicity assay (Hoechst DNA assay), A549
Format: cell-based
Condition: Homo sapiens, A549; isolated compounds; concentration inhibiting 50% cell growth; 48 h; mean of three independent assays
Form field: IC50 (one value per entry).

Answered cases to consult:
>  <Molecule>
CC(C)c1ccc2c(c1)[C@H](O)CC1[C@](C)(C(=O)O)CCC[C@]21C (stereo partly drawn) [Compound 10, 7α-hydroxydehydroabietic acid]

>  <IC50>
> 100 µM

$$$$
>  <Molecule>
C=C(C)c1ccc2c(c1)[C@H](O)CC1[C@](C)(C(=O)O)CCC[C@]21C (stereo partly shown)

>  <IC50>
> 100 µM

$$$$
>  <Molecule>
CC(C)c1ccc2c(c1)C(=O)C[C@H]1[C@](C)(CO)CCC[C@]21C [Compound 12, 7-oxodehydroabietinol]

>  <IC50>
34 µM

$$$$

Now for another entry.
Problem: State the recorded IC50 for this entry: CC(C)(O)c1ccc2c(c1)[C@H](O)CC1[C@](C)(C=O)CCC[C@]21C (stereo partly shown)
Result: > 100 µM

----------
Tested on: Escherichia coli ATCC 25922
Measurement description: Antibacterial microdilution assay (resazurin), E. coli
Assay type: cell-based
Condition: ATCC25922, isolated compounds, 6 h at 37 °C
pIC50: −log10 of the molar value.
Measurement label: pIC50

>  <Compound>
CC(C)c1ccc2c(c1)[C@@H](O)CC1[C@](C)(O)CCC[C@]21C (stereo partly drawn)

>  <pIC50>
< 4.00

$$$$
>  <Compound>
CC(C)c1ccc2c(c1)[C@H](O)CC1[C@](C)(C(=O)O)CCC[C@]21C (stereo partly drawn) [Compound 10, 7α-hydroxydehydroabietic acid]

>  <pIC50>
< 4.00

$$$$

Now for another entry.
Problem: State the recorded pIC50 for this entry: CC(C)(O)c1ccc2c(c1)CC[C@H]1[C@](C)(C(=O)O)CCC[C@]21C [Compound 7, 15-hydroxydehydroabietic acid]
Result: < 4.00

----------
Test system: Escherichia coli ATCC 25922
Measurement description: Antibacterial microdilution assay (resazurin), E. coli
Format: cell-based
Condition: ATCC25922, isolated compounds, 6 h at 37 °C
Form field: IC50 (one value per entry).

Answered cases to consult:
>  <Compound>
CC(C)(O)c1ccc2c(c1)C(=O)C[C@H]1[C@](C)(O)CCC[C@]21C [Compound 13]

>  <IC50>
> 100 µM

$$$$
>  <Compound>
CC(C)(O)c1ccc2c(c1)[C@H](O)CC1[C@](C)(C(=O)O)CCC[C@]21C (stereo partly drawn) [Compound 5, 7α,15-dihydroxydehydroabietic acid]

>  <IC50>
> 100 µM

$$$$
>  <Compound>
CC(C)c1ccc2c(c1)[C@@H](O)CC1[C@](C)(C(=O)O)CCC[C@]21C (stereo partly drawn) [Compound 11, 7β-hydroxydehydroabietic acid]

>  <IC50>
> 100 µM

$$$$

Problem: State the recorded IC50 for this entry: CC(C)c1ccc2c(c1)C(=O)C[C@H]1[C@](C)(CO)CCC[C@]21C [Compound 12, 7-oxodehydroabietinol]
Result: > 100 µM

Problem: State the recorded IC50 for this entry: CC(C)(O)c1ccc2c(c1)[C@H](O)CC1[C@](C)(C=O)CCC[C@]21C (stereo partly shown) [Compound 4]
Result: > 100 µM

Problem: State the recorded IC50 for this entry: CC(C)(O)c1ccc2c(c1)C(=O)CC1[C@](C)(C(=O)O)CCC[C@]21C (stereo partly shown) [Compound 15]
Result: > 100 µM

Problem: State the recorded IC50 for this entry: C[C@@]1(CO)CCC[C@]2(C)c3ccc(O)cc3CCC12 (stereo partly shown) [Compound 3]
Result: > 100 µM

Problem: State the recorded IC50 for this entry: CC(C)(O)c1ccc2c(c1)[C@@H](O)CC1[C@](C)(C(=O)O)CCC[C@]21C (stereo partly drawn) [Compound 6, 7β,15-dihydroxydehydroabietic acid]
Result: > 100 µM
